molecular target: antibody P1, specific for the PSA-derived 8-mer PET sequence EPAELTDA; experiment: peptide competition ELISA; soluble peptide competes with coated target peptide for P1
pIC50: −log10 of the molar value. Where no end group is shown, it is not given here.

{"binder": "DPTQLTDA [nearest-neighbor 8-mer peptide DPTQLTDA]", "pIC50": "< 3.00"}
{"binder": "EPAELTDA (not fully specified) [PSA-derived 8-mer PET peptide EPAELTDA]", "pIC50": 7.40}
{"binder": "EPVELTSA [nearest-neighbor 8-mer peptide EPVELTSA]", "pIC50": "< 3.00"}
